assay info: Antiulcerogenic (stomach-protective) action, pylorus ligature and acetylsalicylic acid
Format: in vivo, rat (female)
setup conditions: in vivo; LD50 mouse i.p. / ED50 rat i.d.; Table IX; read-out: TQ LD50/ED50, antiulcerogenic action
We begin with a simple list: items and their reported selectivity ratio.

Here is how some molecules turned out for selectivity ratio.
CC(C)C(=O)N(CCCCC(=O)O)c1cccc2ccccc12
~20
CCOc1ccc(N(CCCC(=O)O)C(=O)c2ccc(Cl)cc2)c2ccccc12
7
O=C(O)CCCCN(C(=O)c1ccc(Cl)cc1)c1ccc2c(c1)CCC2
≤ 16

Prompt line: Entry CC(CCC(=O)O)N(C(=O)c1ccc(Cl)cc1)c1cccc2ccccc12 (stereo not drawn) : reported selectivity ratio = ?
Response line: > 18

Prompt line: Entry CCC(=O)N(CCCC(=O)O)C1CCCc2cc(OC)ccc21 (stereo not drawn) : reported selectivity ratio = ?
Response line: > 20

Prompt line: Entry `O=C(O)CCCN(C(=O)c1ccc(Cl)c(Cl)c1)c1ccc2c(c1)CCC2` : reported selectivity ratio = ?
Response line: > 18

Hey, just so you know, these numbers are from patent US4243678A.
